Test system: AR mRNA
Experiment: Dose-dependent antisense inhibition of human AR in HuVEC cells (electroporation, qRT-PCR RTS3559, IC50)
Assay type: cell-based
Conditions: Table 35; 750.0 nM, HuVEC, electroporation, approximately 16 hours
Oligonucleotides are written 5' to 3', each unit as a sugar letter and its base; * is a phosphorothioate linkage, no mark a phosphodiester; rarer units and linkages stand in square brackets, end groups in braces. Plain capitals give the bases only. k = constrained ethyl (cEt); [5mC] = 5-methylcytosine; d = 2'-deoxy (DNA)
ASSAY METRIC: percent inhibition of AR, 750.0 nM (%)
Express your answer in %, writing the number without its unit.

Example substances with recorded percent inhibition of AR, 750.0 nM:
>>> val("584163 (kG*kA*kA*d[5mC]*dA*dT*dT*dA*dT*dT*dA*dG*dG*k[5mC]*kT*kA) [compound 584163]")
74
>>> val("584183 (kA*k[5mC]*kA*dG*dG*d[5mC]*dT*d[5mC]*dT*dG*dA*d[5mC]*dT*kA*kG*kG; antisense) [compound 584183]")
64
>>> val("584179 (kA*kT*kG*dA*dG*dT*d[5mC]*d[5mC]*dT*d[5mC]*dA*dG*dA*kA*kT*k[5mC]; antisense) [compound 584179]")
62
>>> val("584167 (kG*kA*kG*dT*dG*dT*dT*dA*dA*dT*dG*dA*dA*kG*kA*k[5mC]; antisense) [compound 584167]")
76
>>> val("584180 (kG*kT*kA*dG*dA*dT*dT*d[5mC]*dT*dA*dG*d[5mC]*dT*kT*kT*kG; antisense) [compound 584180]")
84
>>> val("584138 (k[5mC]*kG*k[5mC]*dG*d[5mC]*dA*dG*dG*dT*dA*dG*dG*dA*kG*k[5mC]*k[5mC]; antisense) [compound 584138]")
62
>>> val("549458 (kG*kT*kT*dG*dA*dT*dT*dT*dA*dA*dT*dG*dG*kT*kT*kG) [compound 549458]")
84
>>> val("584149 (kG*kT*k[5mC]*dA*dA*dT*dA*dT*d[5mC]*dA*dA*dA*dG*k[5mC]*kA*k[5mC]) [compound 584149]")
68

### Prompt I have this substance here, 584152 (kG*kA*kG*dT*dT*dG*dT*dG*dA*dT*dT*dT*d[5mC]*kA*kG*kG; antisense) [compound 584152] , and I need its recorded percent inhibition of AR, 750.0 nM.
### Response 87

### Prompt Look up percent inhibition of AR, 750.0 nM: 584148 (k[5mC]*kA*kT*dA*dT*dT*dA*dT*dT*dG*dT*dG*d[5mC]*kT*kG*k[5mC]; antisense) [compound 584148]
### Response 79

### Prompt Can you share its percent inhibition of AR, 750.0 nM? I mean this substance: 584166 (k[5mC]*kA*k[5mC]*dA*dT*d[5mC]*dA*dG*dA*dA*dG*dG*dA*kG*kT*kA; antisense) [compound 584166]
### Response 84
